The compounds listed here are annotated with their growth.
# System: HCC-2998 colon
# assay protocol: NCI-60 one-dose screen, 48 h (100 = growth as untreated, 0 = no growth, -100 = all killed)
# settings: 10 µM unless noted
Compounds without any hit were thinned out: in the full panel of roughly 83,000, 20% have a hit.
Kindly answer with a numeric value in %, unit omitted.

Before answering, review these 5 worked examples.
| compound | growth [%] |
| --- | --- |
| O=C(N/N=C/c1ccsc1)c1[nH]c2ccc(Br)cc2c1-c1ccccc1 | -59.4 |
| COC(=O)c1c(C(=O)OC)c2c3ccccc3c3ccccc3n2c1C(=O)C(F)(F)F | 122 |
| CCCn1c(NC(=O)c2cccc(C(N)=O)c2)nc2ccc(CN3CCCCC3)cc21 | 107 |
| OC(c1ccccc1)(c1ccccc1)C1CCN(c2ccc3nnc(Cl)n3n2)CC1 | 55.2 |
| COc1ccc(-c2nc3ccccc3n2CC(=O)N=Nc2c(O)[nH]c3ccc(Br)cc23)cc1 | 108 |

Fill: growth (HCC-2998 colon) for this compound COc1ccccc1NC(=O)N/N=C/c1c[nH]c2ccccc12 6.44

Fill: growth (HCC-2998 colon) for this compound CC(=O)Nc1ccc(S(=O)(=O)Nc2ccc(-c3ccc4c(c3)NC(=O)/C4=C\c3ccc[nH]3)cc2)cc1 96.9

Fill: growth (HCC-2998 colon) for this compound CC1=C(C(=O)OCc2ccccc2)C(c2ccc(N(C)C)cc2)n2c(nc3ccccc32)N1 (stereo not drawn) 90.8

Fill: growth (HCC-2998 colon) for this compound O=c1[nH]c2ccccc2cc1COc1ccc(Nc2nccc(-c3ccc(Cl)cc3)n2)cc1 116

Fill: growth (HCC-2998 colon) for this compound O=C1/C(=C/c2cnc(-c3ccccc3)s2)SC(=S)N1Cc1ccc2c(c1)OCO2 102

====

# Tested on: SR leukemia
# assay protocol: NCI-60 one-dose screen, 48 h (100 = growth as untreated, 0 = no growth, -100 = all killed)
# settings: 10 µM unless noted
About 83,000 compounds went through this panel and 20% of them were active in at least one assay; those are over-represented in the sample as a whole.
So basically: growth at 20% or higher? That is 1.0. Lower than 20%? That is 0.0.

Consider the following illustrative entries.
| compound | class name |
| --- | --- |
| S=C(Nc1ccccc1)Nc1ccc(OCc2nc3ccc(Cl)cc3[nH]2)cc1 | 1.0 |
| Clc1ccc(-c2nc3ccc(-c4nnc(SCc5ccccc5)o4)cc3[nH]2)cc1 | 1.0 |
| O=C1C=CC(=CC=C2N(Cc3ccc4ccccc4c3)c3ccccc3N2Cc2ccc3ccccc3c2)C=C1 | 0.0 |
| COc1ccc(-c2cc(C)nc3[nH]c(=O)sc23)cc1 | 1.0 |
| Nc1cc2ccccc2c(=O)n1NC(=O)c1ccc(Br)cc1 | 1.0 |
| CC(C)(C)c1cc(-c2cc(-c3ccccc3)[nH]c(=O)c2C#N)cc(C(C)(C)C)c1 | 1.0 |

Okay, next one:
Kindly determine if growth recorded for N#Cc1ccc(C(=O)CSc2nc3c(c(Nc4ccc(S(N)(=O)=O)cc4)n2)CCC3)cc1 is above or exactly 20%. 1.0

====

# Test system: SNB-19 CNS
# assay protocol: NCI-60 one-dose screen, 48 h
# settings: 10 µM unless noted
Compounds without any hit were thinned out: in the full panel of roughly 83,000, 20% have a hit. Active and inactive are the calls of the source. How the source made its calls: active means growth percent below 10; inactive means the rest.
Permitted responses: 1 (yes) = active, 0 (no) = inactive

Consider the following illustrative entries.
| compound | class name |
| --- | --- |
| Cc1ccc(Nc2nnc(-c3c[nH]c4ccccc34)o2)c(C)c1 | 0 (no) |
| COc1ccc(NC(=O)N/N=C/c2c[nH]c3ccccc23)cc1 | 0 (no) |
| CC1=C(C)C(=O)C(NCCN2CCOCC2)=C(Br)C1=O | 0 (no) |

Query: recorded result category for O=C1Nc2ccccc2/C1=C/C(=O)c1cc2ccccc2oc1=O in this test 0 (no)

Query: recorded result category for Cn1cc(-c2cc3nc(-c4cn(C)c5ncccc45)cc(N)n3n2)c2cc(F)ccc21 in this test 1 (yes)

Query: recorded result category for COc1ccc(NC(=O)Cn2c(/C=C/c3cccc(Br)c3)nc3ccccc3c2=O)cc1 in this test 0 (no)

Query: recorded result category for COc1ccc(/C=C/C(=O)c2ccc(OC)c(S(N)(=O)=O)c2)c(C(F)(F)F)c1 in this test 1 (yes)

Query: recorded result category for Cc1ccc(O)cc1Nc1nc(SCCN2CCOCC2)nc2c1cnn2CC(Cl)c1ccc(Br)cc1 (centres undefined) in this test 0 (no)

Query: recorded result category for CCOc1ccc(-c2cc(-c3cc(C(C)C)c(O)cc3C)nn2-c2ccc(S(N)(=O)=O)cc2)cc1 in this test 0 (no)

Source of measurements: PubChem BioAssay (NCI)
